- measurementDescription: Tumor uptake and tissue distribution in mice bearing SJSA-1 xenografts
- Type: in vivo, athymic mice
- testContext: athymic, mouse, bladder, iv, 166.5 kBq, total radioactivity
measurementName: tissue uptake at 0.5 h (%ID/g)
Write it as a number; the unit %ID/g goes unstated.

Exercise: Fill in the blank: the reported tissue uptake at 0.5 h of CC(=O)N[C@@H](CCCCNC(=O)c1cccc(I)c1)C(=O)NCCCCCC(=O)N[C@H](C(=O)N[C@@H](CO)C(=O)N[C@@H](Cc1ccccc1)C(=O)N[C@]1(C)CCCCCCC=CCCC[C@@](C)(C(=O)N[C@@H](CCC(=O)O)C(=O)N[C@@H](CC(N)=O)C(=O)N[C@@H](Cc2ccccc2)C(N)=O)NC(=O)[C@H](CC(C)C)NC(=O)[C@H](CC(C)C)NC(=O)[C@H](C)NC(=O)[C@H](Cc2c[nH]c3ccccc23)NC(=O)[C@H](Cc2ccc(O)cc2)NC(=O)[C@H](CCC(=O)O)NC1=O)[C@@H](C)O [[^125I]SIB-VIP116] is ____.
Solution: 0.61
